Examples of molecules with documented CC50 follow.
# Test system: ACHN
# TEST PROTOCOL: Growth inhibition of human ACHN cells by sulforhodamine B assay
# Type: functional
# CONDITION SET: read-out: LC50 (the source's name)
All answers are understood in µM, so give the number only.

> print(dat)
                              smiles.record  meas.value
1  CC1(C)C[C@@H](O)[C@]2(C(=O)O)CC[C@]3(C)C(=CC[C@@H]4[C@@]5(C)C/C(=C\C=C\c6ccccc6)C(=O)C(C)(C)[C@@H]5CC[C@]43C)[C@@H]2C1        39.2
2  CC(C)=CC(=O)O[C@@H]1CC(C)(C)C[C@H]2C3=CC[C@@H]4[C@@]5(C)CC[C@H](O)C(C)(C)[C@@H]5CC[C@@]4(C)[C@]3(C)CC[C@@]12C(=O)O        58.5

The record that follows has no CC50 shown yet.
Query (molecule): C/C=C(/C)C(=O)O[C@@H]1CC(C)(C)C[C@H]2C3=CC[C@@H]4[C@@]5(C)CC[C@H](O)C(C)(C)[C@@H]5CC[C@@]4(C)[C@]3(C)CC[C@@]12C(=O)O ; field requested: CC50 9.07

---

# System: HCT-15
# TEST PROTOCOL: Growth inhibition of human HCT15 cells by sulforhodamine B assay
# Assay type: functional
# CONDITION SET: read-out: pTGI (converted)
Examples of molecules with documented TGI follow.
All answers are understood in µM, so give the number only.

> print(dat)
                              smiles.record  meas.value
1  CC1(C)C[C@@H](O)[C@]2(C(=O)O)CC[C@]3(C)C(=CC[C@@H]4[C@@]5(C)C/C(=C\C=C\c6ccccc6)C(=O)C(C)(C)[C@@H]5CC[C@]43C)[C@@H]2C1          12
2  C/C=C(/C)C(=O)O[C@@H]1CC(C)(C)C[C@H]2C3=CC[C@@H]4[C@@]5(C)CC[C@H](O)C(C)(C)[C@@H]5CC[C@@]4(C)[C@]3(C)CC[C@@]12C(=O)O        11.5
3  CC(C)=CC(=O)O[C@@H]1CC(C)(C)C[C@H]2C3=CC[C@@H]4[C@@]5(C)CCC(=O)C(C)(C)[C@@H]5CC[C@@]4(C)[C@]3(C)CC[C@@]12C(=O)O        15.5

Query (molecule): CC(C)=CC(=O)O[C@@H]1CC(C)(C)C[C@H]2C3=CC[C@@H]4[C@@]5(C)CC[C@H](O)C(C)(C)[C@@H]5CC[C@@]4(C)[C@]3(C)CC[C@@]12C(=O)O ; field requested: TGI 19.1

---

# Test system: 786-0
# TEST PROTOCOL: Growth inhibition of human 786-0 cells by sulforhodamine B assay
# Assay type: functional
# CONDITION SET: read-out: TGI
OBSERVABLE: TGI (µM)
All answers are understood in µM, so give the number only.

Query (molecule): CC(C)=CC(=O)O[C@@H]1CC(C)(C)C[C@H]2C3=CC[C@@H]4[C@@]5(C)CCC(=O)C(C)(C)[C@@H]5CC[C@@]4(C)[C@]3(C)CC[C@@]12C(=O)O ; field requested: TGI 20.2

Query (molecule): C/C=C(/C)C(=O)O[C@@H]1CC(C)(C)C[C@H]2C3=CC[C@@H]4[C@@]5(C)CC[C@H](O)C(C)(C)[C@@H]5CC[C@@]4(C)[C@]3(C)CC[C@@]12C(=O)O [Reduced Lantadene A] ; field requested: TGI 3.41

Query (molecule): CC1(C)C[C@@H](O)[C@]2(C(=O)O)CC[C@]3(C)C(=CC[C@@H]4[C@@]5(C)C/C(=C\C=C\c6ccccc6)C(=O)C(C)(C)[C@@H]5CC[C@]43C)[C@@H]2C1 ; field requested: TGI 12.8

Query (molecule): CC(C)=CC(=O)O[C@@H]1CC(C)(C)C[C@H]2C3=CC[C@@H]4[C@@]5(C)CC[C@H](O)C(C)(C)[C@@H]5CC[C@@]4(C)[C@]3(C)CC[C@@]12C(=O)O [Reduced Lantadene B] ; field requested: TGI 11.5

---

Examples of molecules with documented TGI follow.
# TEST PROTOCOL: Growth inhibition of human HCC2998 cells by sulforhodamine B assay
# Assay type: functional
# CONDITION SET: HCC 2998, read-out: TGI
All answers are understood in µM, so give the number only.

Example molecules with recorded TGI:
> print(dat)
                              smiles.record  observable  unit.string  meas.value
1  CC1(C)C[C@@H](O)[C@]2(C(=O)O)CC[C@]3(C)C(=CC[C@@H]4[C@@]5(C)C/C(=C\C=C\c6ccccc6)C(=O)C(C)(C)[C@@H]5CC[C@]43C)[C@@H]2C1         TGI           µM        7.55
2  CC(C)=CC(=O)O[C@@H]1CC(C)(C)C[C@H]2C3=CC[C@@H]4[C@@]5(C)CC[C@H](O)C(C)(C)[C@@H]5CC[C@@]4(C)[C@]3(C)CC[C@@]12C(=O)O         TGI           µM        15.3
3  C/C=C(/C)C(=O)O[C@@H]1CC(C)(C)C[C@H]2C3=CC[C@@H]4[C@@]5(C)CC[C@H](O)C(C)(C)[C@@H]5CC[C@@]4(C)[C@]3(C)CC[C@@]12C(=O)O         TGI           µM        3.47

The record that follows has no TGI shown yet.
Query (molecule): CC(C)=CC(=O)O[C@@H]1CC(C)(C)C[C@H]2C3=CC[C@@H]4[C@@]5(C)CCC(=O)C(C)(C)[C@@H]5CC[C@@]4(C)[C@]3(C)CC[C@@]12C(=O)O ; field requested: TGI 13.4

---

# Test system: ACHN
# TEST PROTOCOL: Growth inhibition of human ACHN cells assessed as growth inhibition at 10 uM by sulforhodamine B assay
# Format: functional
# CONDITION SET: read-out: GI
OBSERVABLE: inhibition of growth at 10 µM (%)
All answers are understood in %, so give the number only.

Example compounds with recorded inhibition of growth at 10 µM:
COMPOUND	inhibition of growth at 10 µM [%]
CC(C)=CC(=O)O[C@@H]1CC(C)(C)C[C@H]2C3=CC[C@@H]4[C@@]5(C)CCC(=O)C(C)(C)[C@@H]5CC[C@@]4(C)[C@]3(C)CC[C@@]12C(=O)O	56.1
C/C=C(/C)C(=O)O[C@@H]1CC(C)(C)C[C@H]2C3=CC[C@@H]4[C@@]5(C)CC[C@H](O)C(C)(C)[C@@H]5CC[C@@]4(C)[C@]3(C)CC[C@@]12C(=O)O [Reduced Lantadene A]	91.9
C/C=C(/C)C(=O)O[C@@H]1CC(C)(C)C[C@H]2C3=CC[C@@H]4[C@@]5(C)CCC(=O)C(C)(C)[C@@H]5CC[C@@]4(C)[C@]3(C)CC[C@@]12C(=O)O [LANTADENE A]	46.1

The record that follows has no inhibition of growth at 10 µM shown yet.
Query (compound): COc1cc(/C=C2\C[C@]3(C)[C@H]4CC=C5[C@@H]6CC(C)(C)C[C@@H](O)[C@]6(C(=O)O)CC[C@@]5(C)[C@]4(C)CC[C@H]3C(C)(C)C2=O)ccc1O ; field requested: inhibition of growth at 10 µM 14.4

---

Examples of compounds with documented inhibition of growth at 10 µM follow.
# Test system: SNB-19
# TEST PROTOCOL: Growth inhibition of human SNB19 cells assessed as growth inhibition at 10 uM by sulforhodamine B assay
# Assay type: functional
# CONDITION SET: read-out: GI
All answers are understood in %, so give the number only.

Test system SNB-19; read-out inhibition of growth at 10 µM; what value for C/C=C(/C)C(=O)O[C@@H]1CC(C)(C)C[C@H]2C3=CC[C@@H]4[C@@]5(C)CCC(=O)C(C)(C)[C@@H]5CC[C@@]4(C)[C@]3(C)CC[C@@]12C(=O)O ? 40.6

Test system SNB-19; read-out inhibition of growth at 10 µM; what value for CC1(C)C[C@@H](O)[C@]2(C(=O)O)CC[C@]3(C)C(=CC[C@@H]4[C@@]5(C)C/C(=C\C=C\c6ccccc6)C(=O)C(C)(C)[C@@H]5CC[C@]43C)[C@@H]2C1 ? 26.6

Test system SNB-19; read-out inhibition of growth at 10 µM; what value for CC(C)=CC(=O)O[C@@H]1CC(C)(C)C[C@H]2C3=CC[C@@H]4[C@@]5(C)CCC(=O)C(C)(C)[C@@H]5CC[C@@]4(C)[C@]3(C)CC[C@@]12C(=O)O ? 42.7

Test system SNB-19; read-out inhibition of growth at 10 µM; what value for CC(C)=CC(=O)O[C@@H]1CC(C)(C)C[C@H]2C3=CC[C@@H]4[C@@]5(C)CC[C@H](O)C(C)(C)[C@@H]5CC[C@@]4(C)[C@]3(C)CC[C@@]12C(=O)O ? 14.4
